experiment: Restrictive medium S. cerevisiae growth inhibition, OD615, pilot screen of yeast lifespan reduction project, restrictive growth control (AID 706); conditions: OD615, 48 h, at 10 µM, stronger effect = higher value;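 note: modified DeaD lifespan yeast strain shifted to restrictive glucose medium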
Catalogue of growth inhibition values
Give your result in % as a bare value.

For orientation, consider the following solved cases.
* CN(C)CCCNCCCNC(=O)/C(=N\O)c1ccccn1 | -2.4
* CC(C)OCCCNC(=O)c1ccc(NC(=O)C2CCCO2)cc1 (configuration not stated) | -8.97
* Cc1ccc(N2C(=O)Nc3ccc(Br)cc3C2(O)C(=O)NCCCN(C)C)cc1C (configuration not stated) | -9.65
* O=C(O)c1ccc(N2CCCCCC2)c(N2C(=O)c3ccccc3C2=O)c1 | 4.7
* Cc1ccc(CNC(=O)CCS(=O)(=O)c2cccc3nonc23)cc1 | -4.57

Request: May I ask what growth inhibition has been recorded for COc1ccc(NC(=O)c2cc3ccccn3n2)cc1 ?
Result: 0.42

Request: May I ask what growth inhibition has been recorded for Cc1cc(C)n2nc(S(=O)(=O)NC3CCCCC3)nc2n1 ?
Result: -7.9

Request: May I ask what growth inhibition has been recorded for O=C(NCc1ccccn1)C1CC(=O)N(C2CCCC2)C1 (configuration not stated) ?
Result: 4.21

Request: May I ask what growth inhibition has been recorded for Cc1ccc(-c2c(C(=O)N3CCOCC3)oc(=O)c3ccccc23)cc1 ?
Result: -6.92

Request: May I ask what growth inhibition has been recorded for CCOC(=O)c1ccc(NC(=O)C23CCC(C)(C(=O)O2)C3(C)C)cc1 (configuration not stated) ?
Result: 4.45

Request: May I ask what growth inhibition has been recorded for CC(C)OC(=O)C1C2C=CC3(CN(C(C)c4ccc(Br)cc4)C(=O)C13)O2 (configuration not stated) ?
Result: -19.3

Request: May I ask what growth inhibition has been recorded for O=C(CCS(=O)(=O)c1ccccc1)Nc1nc2c(s1)COc1ccccc1-2 ?
Result: -10.9

* * *

test: growth suppression of beta-catenin knockout HCT116, pilot screen, human colon tumor cells (AID 823); details: CellTiter-Glo, 60 h, at 10 µM, stronger effect = lower value;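 note: 0% = wells killed by 20 µM Hyamine and 100% = untreated DMSO cell wells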
Inconclusive results are not listed. Active and inactive are the calls of the source.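 Rule for the calls: active = cell viability at or below a set limit in both duplicate runs, the limit being the all-compound median minus 4 SD (cut at about 23% in these data, passing the limit was not always enough); inconclusive = no clear call, values can overlap the other calls; inactive = the rest.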
Catalogue of viability values

• CC(=O)N(CCCc1ccc(C(C)(C)C)cc1)CCCN(C)C = 70.6% (inactive)
• COc1ccc(OCC(=O)Nc2cc(OC)cc(OC)c2)cc1 = 88.7% (inactive)
• Cn1c(=O)c(C(=O)Nc2ncccn2)c(O)c2ccccc21 = 87.1% (inactive)
• CN(C)/C=N/c1c(C#N)cnn1-c1ccccc1 = 103% (inactive)
• CC(C)C12CN3CC(C(C)C)(CN(C1)C31C(=O)Nc3ccccc31)C2=O (stereo unspecified) = 90.3% (inactive)

Request: May I ask what viability has been recorded for Cc1ccc(C(=O)N2CCN(C)CC2)cc1S(=O)(=O)N1CCCCC1 ?
Result: 90.1% (inactive)

* * *

assay: reversal of MRP1-mediated doxorubicin resistance, pilot screen, H69AR cells, doxorubicin co-treatment (AID 601); details: H69AR cells, CellTiter-Glo, 72 h; compound alone cytotoxicity; at 10 µM
Catalogue of viability values
Give your result in % as a bare value.

For orientation, consider the following solved cases.
* O=C(c1cccc2ccccc12)N1CCC(N2CCN(c3ccccc3)CC2)CC1 | 88
* CC1=C(C(=O)NC2CCC(C)CC2)C2(CCC(C)CC2)OC1=O (stereo not drawn) | 90.4
* COc1cccc(-c2nc(CSCC(=O)N3CCc4ccccc43)c(C)o2)c1 | 87.1

Request: May I ask what viability has been recorded for Cc1cccc(CN2CCN(C(c3ccccc3)c3ccc(Cl)cc3)CC2)c1 (stereo not drawn) ?
Result: 96.8

Request: May I ask what viability has been recorded for CCOC(=O)CNC(=O)C(Cc1ccccc1)NS(=O)(=O)c1ccc2c(c1)CCC(=O)N2 (stereo not drawn) ?
Result: 90.7

Request: May I ask what viability has been recorded for CCOC(=O)N1CCN(C(=O)CSc2cc(C)nc3c(-c4ccccc4OC)c(C)nn23)CC1 ?
Result: 73.3

* * *

test: growth suppression of yeast trafficking mutant, preliminary HTS, modulators of trafficking downstream of Golgi apparatus project, 1536-format plate, OD 615 nm (AID 637); details: yeast transport mutant growth, absorbance 615 nm, 18 h
Activity calls are given as the source filed them. Cut-off read from the data, not from the text of the source: active = inhibition above about 30%; inactive = the rest.
Your answer must be one of the following: active, inactive

- CCn1cc(C2=NCC(C)O2)c2ccccc21 (centres undefined): inactive
- CCOc1ccccc1OCC(=O)Nc1nnc(COC)s1: inactive
- CCOC(=O)c1ccccc1NC(=O)c1cc2sccc2n1C: inactive
- Cc1nnc(SCC(=O)Nc2cc(C(F)(F)F)ccc2N2CCOCC2)o1: inactive
- O=C1CC(c2ccccc2)n2nc(NC(=O)c3ccccn3)nc2N1 (centres undefined): inactive
- CCOCCCNS(=O)(=O)c1ccc2c(c1)oc(=O)n2CC(=O)OCC: inactive
- Cn1c(=O)n(Cc2ccc(F)cc2)c(=O)c2c1nc1n2CCCN1Cc1ccccc1: inactive
- CCOC(=O)c1sc(NC(=O)CNC(=O)Cn2cnc3sc(C)c(C)c3c2=O)nc1C: inactive

Request: Test call for this compound, please: CCOC(=O)c1ccc(NC2OC(=O)c3ccccc32)cc1 (centres undefined)
Result: inactive

Request: Test call for this compound, please: CCC(=O)N1CCc2cc(S(=O)(=O)CCC(=O)Nc3ccc(C)c(F)c3)ccc21
Result: inactive

Request: Test call for this compound, please: CCSC1=NCN(CCCC(=O)O)CN1
Result: inactive

Request: Test call for this compound, please: CC/C(O)=C(/C#N)c1nnc2n1CCCCC2
Result: inactive

Request: Test call for this compound, please: Cn1c(C(=O)N2CCCC(C(=O)NCCCc3ccccc3)C2)cc2sccc21 (centres undefined)
Result: inactive

Request: Test call for this compound, please: COc1ccccc1N1CCN(c2nc3ccccc3nc2C(C#N)C(=O)OC(C)C)CC1 (centres undefined)
Result: inactive

Request: Test call for this compound, please: CS(=O)(=O)N1CCCC(C(=O)NCc2ccccc2Cl)C1 (centres undefined)
Result: inactive

Request: Test call for this compound, please: Cc1ccc(-c2nn(-c3ccccc3)cc2CN(Cc2ccccc2)C(=O)CCC(=O)O)o1
Result: inactive

Request: Test call for this compound, please: COc1ccccc1N=Cc1nc(-c2ccccc2)oc1OC(C)=O
Result: inactive

Request: Test call for this compound, please: Cc1ccc(S(=O)(=O)N(CC(=O)NCc2ccco2)Cc2ccccc2F)cc1
Result: inactive

Request: Test call for this compound, please: CCOC(=O)N1CCN(C(=O)CCc2ccc(S(=O)(=O)NCCc3ccccc3)cc2)CC1
Result: inactive

* * *

assay: RAM signaling pathway blockade in yeast – S. cerevisiae, Pdr1DBD-CYC8 efflux-inhibited sensitized strain, primary screen (AID 1298);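 note: 0% = DMSO untreated cells without growth and 100% = 10 µM 1-NA-PP1 full growth; higher means more yeast growth rescued from 5-FOA killing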; conditions: S. cerevisiae cbk1-as DSE1-URA3 strain, 5-FOA growth OD615, 2 d; at 50 µM; stronger effect = higher value
Value kind: RAM network inhibition (%)
Give your result in % as a bare value.

Request: May I ask what RAM network inhibition has been recorded for COc1ccc(NC(=O)c2cncc(Br)c2)c(S(=O)(=O)N2CCOCC2)c1 ?
Result: 4.58

Request: May I ask what RAM network inhibition has been recorded for O=C(NCN1CCc2ccccc2C1)c1cnccn1 ?
Result: 5.24

Request: May I ask what RAM network inhibition has been recorded for c1nc(NCCN2CCOCC2)c2sc3nc(N4CCOCC4)c4c(c3c2n1)CCC4 ?
Result: 8.21

Request: May I ask what RAM network inhibition has been recorded for COc1ccc(C)cc1NC(=O)Cn1cnc2sc(C)c(S(=O)(=O)N3CCOCC3)c2c1=O ?
Result: 9.74

Request: May I ask what RAM network inhibition has been recorded for COc1ccc(C2C3=C(CC(C)(C)CC3=O)Nc3n[nH]c(C)c32)cc1 (stereo unspecified) ?
Result: 3.28

Request: May I ask what RAM network inhibition has been recorded for Cn1nnnc1SCC(=O)c1cccs1 ?
Result: 1.92

* * *

molecular target: Receptor tyrosine-protein kinase erbB-2 (Homo sapiens) (UniProt P04626); assay: reducers of endogenous Her2 protein level, primary screen, SKBR3 breast tumor cells, AlphaScreen, ATP viability (AID 461); settings: 18-24 h, at 10 µM, stronger effect = lower value;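 note: lower value means less Her2 protein in the cells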
Sequence (P04626 whole entry, looked up): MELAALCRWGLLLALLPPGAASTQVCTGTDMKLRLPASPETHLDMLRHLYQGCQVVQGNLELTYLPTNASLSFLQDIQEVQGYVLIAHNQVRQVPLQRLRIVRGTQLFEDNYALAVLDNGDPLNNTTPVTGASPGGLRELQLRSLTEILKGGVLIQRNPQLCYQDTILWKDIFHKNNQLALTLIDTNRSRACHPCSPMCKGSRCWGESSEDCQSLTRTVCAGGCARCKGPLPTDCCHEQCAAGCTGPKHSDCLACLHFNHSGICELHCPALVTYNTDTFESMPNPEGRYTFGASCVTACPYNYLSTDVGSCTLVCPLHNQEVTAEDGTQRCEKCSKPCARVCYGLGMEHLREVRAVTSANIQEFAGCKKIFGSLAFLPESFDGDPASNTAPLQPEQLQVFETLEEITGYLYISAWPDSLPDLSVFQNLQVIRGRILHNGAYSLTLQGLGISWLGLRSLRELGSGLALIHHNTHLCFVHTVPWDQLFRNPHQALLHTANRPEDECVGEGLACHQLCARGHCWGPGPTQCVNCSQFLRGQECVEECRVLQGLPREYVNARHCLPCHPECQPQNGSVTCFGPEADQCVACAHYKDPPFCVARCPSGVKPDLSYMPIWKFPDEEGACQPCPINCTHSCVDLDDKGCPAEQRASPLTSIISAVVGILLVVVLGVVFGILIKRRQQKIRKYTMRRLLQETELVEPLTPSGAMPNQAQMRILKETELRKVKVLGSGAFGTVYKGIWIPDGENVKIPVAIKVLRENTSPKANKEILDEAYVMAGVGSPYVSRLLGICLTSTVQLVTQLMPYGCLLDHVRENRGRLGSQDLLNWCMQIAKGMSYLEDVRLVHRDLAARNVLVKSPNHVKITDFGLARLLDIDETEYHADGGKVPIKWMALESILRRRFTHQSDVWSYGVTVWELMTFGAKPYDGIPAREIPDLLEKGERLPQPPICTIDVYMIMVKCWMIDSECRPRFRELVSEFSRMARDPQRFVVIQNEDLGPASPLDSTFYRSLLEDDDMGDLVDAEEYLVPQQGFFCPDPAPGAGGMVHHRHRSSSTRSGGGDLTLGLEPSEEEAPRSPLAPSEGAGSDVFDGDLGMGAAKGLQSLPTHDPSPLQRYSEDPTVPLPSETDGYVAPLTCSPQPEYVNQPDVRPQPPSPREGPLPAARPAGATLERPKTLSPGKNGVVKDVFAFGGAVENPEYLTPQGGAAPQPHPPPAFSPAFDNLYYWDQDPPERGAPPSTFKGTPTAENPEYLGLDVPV
Value kind: Her2 level (%)
Give your result in % as a bare value.

For orientation, consider the following solved cases.
• CCc1cc(=O)oc2cc(OC(C)=O)cc(OC(C)=O)c12 = 74
• COc1cc(NC(=O)C2CC(c3cccc(OC)c3OC)=NO2)cc(OC)c1OC (stereo unspecified) = 99
• Cc1cc(NC(=O)COc2cccc3cccnc23)no1 = 75

Request: May I ask what Her2 level has been recorded for COC(=O)c1ccc(CSc2nc(-c3ccc(OC)cc3)nc3c2c(=O)n(C)c(=O)n3C)o1 ?
Result: 74

Request: May I ask what Her2 level has been recorded for CS(=O)(=O)C1=C(O)C(=O)N(c2ccccc2)C1c1ccccc1 (stereo unspecified) ?
Result: 106

Request: May I ask what Her2 level has been recorded for COc1ccc(-c2cn3c(C)c(C(=O)Nc4cc(NC(C)=O)ccc4OC)sc3n2)cc1 ?
Result: 79.5

Request: May I ask what Her2 level has been recorded for COc1ccccc1CNC(=O)N[C@@H](Cc1ccccc1)C(=O)O ?
Result: 80

Request: May I ask what Her2 level has been recorded for CCOC(=O)CNc1ccc2c(c1)OCO2 ?
Result: 90

Request: May I ask what Her2 level has been recorded for COc1ccc(C(C)=O)c(OC(=O)c2ccc(OC)c(OC)c2)c1 ?
Result: 88.5

Request: May I ask what Her2 level has been recorded for CCN(CC)S(=O)(=O)c1ccc(N2CCCC2)c(C(=O)OCC(=O)/C(C#N)=C(\C)N)c1 ?
Result: 92.5

Request: May I ask what Her2 level has been recorded for Cc1cc(C)c2c(CC(=O)NCc3ccco3)coc2c1 ?
Result: 81.5
